test system: SW-620 colon; assay: NCI-60 one-dose screen, 48 h (100 = growth as untreated, 0 = no growth, -100 = all killed); conditions: 10 µM
About 83,000 compounds went through this panel and 20% of them were active in at least one assay; those are over-represented in the sample as a whole.
// label = T if growth is not less than 50%, otherwise F

> print(dat)
                                   molecule  class.label
1  N#Cc1cnn(C(=O)c2nn(-c3ccc(Cl)cc3)cc2O)c1N            F

I'd appreciate it if you could say whether COc1cc2cc(Oc3ccc(NC(=O)c4cc(C(F)(F)F)cc(C(F)(F)F)c4)cc3)c(C)nc2cc1OC has growth at least equal to 50%.
F

I'd appreciate it if you could say whether CCCCC(CC)CN=C(N)NC(N)=NCCCCCCN=C(N)NC(N)=NCC(CC)CCCC (stereo not given) has growth at least equal to 50%.
F

I'd appreciate it if you could say whether O=C(O)COc1c(Cl)cc([N+](=O)[O-])cc1Cl has growth at least equal to 50%.
T

I'd appreciate it if you could say whether S=C1N(c2ccccc2)CN(C2CCCCC2)CN1c1ccccc1 has growth at least equal to 50%.
T

* * *

system: HT29 colon; assay: NCI-60 one-dose screen, 48 h; conditions: 10 µM
About 83,000 compounds went through this panel and 20% of them were active in at least one assay; those are over-represented in the sample as a whole. Active and inactive are the calls of the source. The calls were made as follows: active = growth percent below 10; inactive = the rest.
Your reply should match one of these outcome classes. YES for active, NO for inactive

Here are 7 compounds together with their reported answers.
Compound	Class label
COc1ccc(N(C)c2ncnc3occ(C)c23)cc1	YES
Cc1ccc(S(=O)(=O)N/N=C2\CCCc3ccccc32)cc1	NO
O[C@@H]1CO[C@H]2[C@@H]1OC[C@@H]2O	NO
CCCN(CCC)C(=O)[C@H](CC)[C@@H]1CC[C@@H](C)[C@@H]([C@H](C)[C@@H](O)[C@@H](C)C(=O)[C@H](CC)C2O[C@]3(C=C[C@@H](O)[C@]4(CC[C@@](C)([C@H]5CC[C@](O)(CC)[C@H](C)O5)O4)O3)[C@H](C)C[C@@H]2C)O1 (stereo partly drawn)	YES
COc1cc(-c2nn(-c3ccc(NC(=O)NCCCNC(=O)c4ccccc4)cc3)cc2-c2ccncc2)ccc1Cl	YES
OC(CCN1CCCC1)(c1ccccc1)C1CCCCC1 (stereo not drawn)	NO
O=C1CCn2c1c(O)c1ccccc1c2=O	NO

Let us examine a further case.
What is the recorded call for this compound in the test? c1ccc(CCCCc2ccc3ccccc3n2)cc1
NO

* * *

tested on: NCI-H23 lung; assay: NCI-60 one-dose screen, 48 h (100 = growth as untreated, 0 = no growth, -100 = all killed); settings: 10 µM
The panel holds about 83,000 compounds, 20% with a hit somewhere; the sample as a whole holds those more often.
Assign labels as follows, please: YES for growth below 70%; NO for growth equal to or exceeding 70%.

Here are 3 compounds together with their reported answers.
> print(dat)
                                   compound  class.label
1      COc1ccc2nc3cc(Cl)ccc3c(NCCCNCCO)c2c1          YES
2  Nc1cc(-c2ccc(Cl)cc2)nn1-c1nc2ccccc2nc1Cc1ccccc1           NO
3  O=C1/C=C/[C@@H](O)[C@@H]2C[C@@H](O)C[C@H]2/C=C/CCC[C@@H](C(F)(F)F)O1           NO

Let us examine a further case.
Lab log: compare recorded growth with 70%; is it strictly lower for COc1cc(/C=C/c2cc(/C=C/c3ccc(O)c(OC)c3)nc(N)n2)ccc1O ?
YES
